Entries and their pKd values follow.
TARGET_UNDER_TEST: T1, biotinylated recombinant his-tagged MrkA, mixture of monomeric and oligomeric MrkA (Klebsiella pneumoniae, UniProt P12267 23-202, biotin-labeled (Pierce kit; sites not stated))
T1 construct: also called biotinylated-MrkA; a mixture of monomeric and multimeric MrkA; not shown: his tag
T1 chain: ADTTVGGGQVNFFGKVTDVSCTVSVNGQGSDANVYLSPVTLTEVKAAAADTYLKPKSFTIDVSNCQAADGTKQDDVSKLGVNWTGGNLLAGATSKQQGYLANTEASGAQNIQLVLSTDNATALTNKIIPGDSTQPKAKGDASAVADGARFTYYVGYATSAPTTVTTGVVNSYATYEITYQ
ASSAY_EXPLANATION: BLI (Octet), biotinylated MrkA on streptavidin sensors, IgG in solution, 1:1 fit
pKd: −log10 of the molar value.

- BINDER: "anti-MrkA clone 6 (IgG1) (antibody, V domains shown, also called St4_C6; IgG clone 6) VH: QVQLVQSGAEVRKPGASVTLSCRTSGYTFTSYAVHWVRQAPGQGLEWMGGVNGGNGNTRFSQKFQDRLMIVRDRSANTASMELRSLTSEDTAVYYCARADDCSGVGCHPWFDPWGQGTLVTVSS VL: SVILTQPPSVSVSPGQTANITCSGDKLGDKYTSWYLQKPGQSPVLLIFQDTKRPSDIPERFSGSNSGNTATLTISGTQAVDEADYYCQAWDSDSGTATFGGGTKLTVL"
  pKd: 8.06
- BINDER: "anti-MrkA clone 4 (IgG1) (antibody, V domains shown, also called St2_C4; IgG clone 4) VH: QLQLQESGPGLVKPSGTLSLTCAVSGDSIDNANWWSWVRQTPGKGLEWIGEIYHSGTTYYNPSLKSRVTISIDNSKNQFSLALTSVTAADTAVYYCARDRDITSRGTFDVWGRGTMVTVSS VL: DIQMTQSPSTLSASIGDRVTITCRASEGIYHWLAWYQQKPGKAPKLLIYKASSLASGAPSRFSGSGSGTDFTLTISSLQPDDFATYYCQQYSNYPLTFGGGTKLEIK"
  pKd: 8.44
- BINDER: "anti-MrkA clone 1 (IgG1) (antibody, V domains shown, also called St1_C1; IgG clone 1) VH: QVQLVQSGAEVRKPGASVTVFCRTSGYIFTSYAVHWVRQAPGQGLEWMGGINGGNGNTRISQRFQDRLMITRDRSANTASMELRSLTSEDTAIYYCARADDCSGVGCHPWFDPWGRGTLVTVSS VL: QSVLTQPPSVSVSPGHTASITCSGDKLGDKYVSWYQQKSGQSPVLVMYKDTKRPSGIPERFSGSNSGNTATLAISGTQAVDEADYFCQAWDRSIMIFGGGTKVTVL"
  pKd: 8.49
- BINDER: "anti-MrkA clone 5 (IgG1) (antibody, V domains shown, also called St3_C5; IgG clone 5) VH: QVQLVQSGAEVKKPGASLKVSCKASGYTFTAYYMHWVRQAPGHGLEWMGWINPSSGGTNSAQKFQGRVTMTRDTSINTAYMELSRLTSDDTAVYYCARGTIGAAGNYWGQGTLVTVSS VL: QSVLTQPPSASGTPGQRVTISCSGSRPNIGGNTVNWYQQLPGAAPKLLIYSNSQRPSGVPDRFSGSKYGTSASLAISGLQSDDEADYYCAAWDDSLTGPVFGGGTKLTIL"
  pKd: 8.45
